Test system: HeLa Kyoto
method-description: thermal stability score vs G1/S (z-score of summed log2 fold changes over temperatures); higher = more thermally stable than in G1/S
condition-set: cell cycle stage: early G1 (4.5 h after nocodazole release)
measurement-label: thermal stability score
The answer should be written as a number, with no unit following it.

Note down thermal stability score recorded for MKLKLKNVFLAYFLVSIAGLLYALVQLGQPCDCLPPLRAAAEQLRQKDLRISQLQAELRRPPPAPAQPPEPEALPTIYVVTPTYARLVQKAELVRLSQTLSLVPRLHWLLVEDAEGPTPLVSGLLAASGLLFTHLVVLTPKAQRLREGEPGWVHPRGVEQRNKALDWLRGRGGAVGGEKDPPPPGTQGVVYFADDDNTYSRELFEEMRWTRGVSVWPVGLVGGLRFEGPQVQDGRVVGFHTAWEPSRPFPVDMAGFAVALPLLLDKPNAQFDSTAPRGHLESSLLSHLVDPKDLEPRAANCTRVLVWHTRTEKPKMKQEEQLQRQGRGSDPAIEV [B3GAT3]
-0.256

---

System: HeLa Kyoto
method-description: solubility change mitosis vs G1/S (difference of NP-40 vs SDS log2 ratios) (log2 ratio difference); higher = more soluble in mitosis
Given measured solubility change mitosis (log2), output Fulfilled if it is greater than or equal to 0.07 and Not fulfilled if not.

Kindly determine if solubility change mitosis (log2) recorded for MLPRRLLAAWLAGTRGGGLLALLANQCRFVTGLRVRRAQQIAQLYGRLYSESSRRVLLGRLWRRLHGRPGHASALMAALAGVFVWDEERIQEEELQRSINEMKRLEEMSNMFQSSGVQHHPPEPKAQTEGNEDSEGKEQRWEMVMDKKHFKLWRRPITGTHLYQYRVFGTYTDVTPRQFFNVQLDTEYRKKWDALVIKLEVIERDVVSGSEVLHWVTHFPYPMYSRDYVYVRRYSVDQENNMMVLVSRAVEHPSVPESPEFVRVRSYESQMVIRPHKSFDENGFDYLLTYSDNPQTVFPRYCVSWMVSSGMPDFLEKLHMATLKAKNMEIKVKDYISAKPLEMSSEAKATSQSSERKNEGSCGPARIEYA [STARD7] is above or exactly 0.07.
Not fulfilled

Kindly determine if solubility change mitosis (log2) recorded for MAPEENAGTELLLQSFERRFLAARTLRSFPWQSLEAKLRDSSDSELLRDILHKTVKHPVCVKHPPSVKYARCFLSELIKKHEAVHTEPLDELYEALAETLMAKESTQGHRSYLLPSGGSVTLSESTAIISYGTTGLVTWDAALYLAEWAIENPAVFTNRTVLELGSGAGLTGLAICKMCRPRAYIFSDCHSRVLEQLRGNVLLNGLSLEADITAKLDSPRVTVAQLDWDVATVHQLSAFQPDVVIAADVLYCPEAIMSLVGVLRRLAACREHQRAPEVYVAFTVRNPETCQLFTTELGRAGIRWEVEPRHEQKLFPYEEHLEMAMLNLTL [EEF2KMT] is above or exactly 0.07.
Not fulfilled

Kindly determine if solubility change mitosis (log2) recorded for MAASSISSPWGKHVFKAILMVLVALILLHSALAQSRRDFAPPGQQKREAPVDVLTQIGRSVRGTLDAWIGPETMHLVSESSSQVLWAISSAISVAFFALSGIAAQLLNALGLAGDYLAQGLKLSPGQVQTFLLWGAGALVVYWLLSLLLGLVLALLGRILWGLKLVIFLAGFVALMRSVPDPSTRALLLLALLILYALLSRLTGSRASGAQLEAKVRGLERQVEELRWRQRRAAKGARSVEEE [TMEM109] is above or exactly 0.07.
Not fulfilled

Kindly determine if solubility change mitosis (log2) recorded for MASMAAAIAASRSAVMSGNRPLDDRERKRFTYFSSLSPMARKIMQDKEKIREKYGPEWARLPPAQQDEIIDRCLVGPRAPAPRDPGDSEELTRFPGLRGPTGQKVVRFGDEDLTWQDEHSAPFSWETKSQMEFSISALSIQEPSNGTAASEPRPLSKASQGSQALKSSQGSRSSSLDALGPTRKEEEASFWKINAERSRGEGPEAEFQSLTPSQIKSMEKGEKVLPPCYRQEPAPKDREAKVERPSTLRQEQRPLPNVSTERERPQPVQAFSSALHEAAPSQLEGKLPSPDVRQDDGEDTLFSEPKFAQVSSSNVVLKTGFDFLDNW [C1ORF198] is above or exactly 0.07.
Fulfilled

Kindly determine if solubility change mitosis (log2) recorded for MNRVLCAPAAGAVRALRLIGWASRSLHPLPGSRDRAHPAAEEEDDPDRPIEFSSSKANPHRWSVGHTMGKGHQRPWWKVLPLSCFLVALIIWCYLREESEADQWLRQVWGEVPEPSDRSEEPETPAAYRART [CCSMST1] is above or exactly 0.07.
Fulfilled

---

Test system: HeLa Kyoto
method-description: melting temperature (median over replicates), in situ; higher = more thermally stable
condition-set: cell cycle stage: G1/S
Given measured melting temperature, output yes (1) if it is greater than or equal to 50 °C and no (0) if not.

Kindly determine if melting temperature recorded for MVRTKTWTLKKHFVGYPTNSDFELKTAELPPLKNGEVLLEALFLTVDPYMRVAAKRLKEGDTMMGQQVAKVVESKNVALPKGTIVLASPGWTTHSISDGKDLEKLLTEWPDTIPLSLALGTVGMPGLTAYFGLLEICGVKGGETVMVNAAAGAVGSVVGQIAKLKGCKVVGAVGSDEKVAYLQKLGFDVVFNYKTVESLEETLKKASPDGYDCYFDNVGGEFSNTVIGQMKKFGRIAICGAISTYNRTGPLPPGPPPEIVIYQELRMEAFVVYRWQGDARQKALKDLLKWVLEGKIQYKEYIIEGFENMPAAFMGMLKGDNLGKTIVKA [PTGR1] is above or exactly 50 °C.
yes (1)

Kindly determine if melting temperature recorded for METQLSNGPTCNNTANGPTTINNNCSSPVDSGNTEDSKTNLIVNYLPQNMTQEELKSLFGSIGEIESCKLVRDKITGQSLGYGFVNYIDPKDAEKAINTLNGLRLQTKTIKVSYARPSSASIRDANLYVSGLPKTMTQKELEQLFSQYGRIITSRILVDQVTGISRGVGFIRFDKRIEAEEAIKGLNGQKPPGATEPITVKFANNPSQKTNQAILSQLYQSPNRRYPGPLAQQAQRFRLDNLLNMAYGVKRFSPMTIDGMTSLAGINIPGHPGTGWCIFVYNLAPDADESILWQMFGPFGAVTNVKVIRDFNTNKCKGFGFVTMTNYDEAAMAIASLNGYRLGDRVLQVSFKTNKTHKA [ELAVL2] is above or exactly 50 °C.
yes (1)

Kindly determine if melting temperature recorded for MGEPQGSMRILVTGGSGLVGKAIQKVVADGAGLPGEDWVFVSSKDADLTDTAQTRALFEKVQPTHVIHLAAMVGGLFRNIKYNLDFWRKNVHMNDNVLHSAFEVGARKVVSCLSTCIFPDKTTYPIDETMIHNGPPHNSNFGYSYAKRMIDVQNRAYFQQYGCTFTAVIPTNVFGPHDNFNIEDGHVLPGLIHKVHLAKSSGSALTVWGTGNPRRQFIYSLDLAQLFIWVLREYNEVEPIILSVGEEDEVSIKEAAEAVVEAMDFHGEVTFDTTKSDGQFKKTASNSKLRTYLPDFRFTPFKQAVKETCAWFTDNYEQARK [TSTA3] is above or exactly 50 °C.
yes (1)

Kindly determine if melting temperature recorded for MARNAEKAMTALARFRQAQLEEGKVKERRPFLASECTELPKAEKWRRQIIGEISKKVAQIQNAGLGEFRIRDLNDEINKLLREKGHWEVRIKELGGPDYGKVGPKMLDHEGKEVPGNRGYKYFGAAKDLPGVRELFEKEPLPPPRKTRAELMKAIDFEYYGYLDEDDGVIVPLEQEYEKKLRAELVEKWKAEREARLARGEKEEEEEEEEEINIYAVTEEESDEEGSQEKGGDDSQQKFIAHVPVPSQQEIEEALVRRKKMELLQKYASETLQAQSEEARRLLGY [ISY1] is above or exactly 50 °C.
no (0)

---

Tested on: HeLa Kyoto
method-description: solubility in G1/S (NP-40 vs SDS abundance) (log2 ratio); higher = more soluble
condition-set: cell cycle stage: G1/S
measurement-label: solubility in G1/S (log2)
The answer should be written as a number, with no unit following it.

Note down solubility in G1/S (log2) recorded for MAASAGAGAVIAAPDSRRWLWSVLAAALGLLTAGVSALEVYTPKEIFVANGTQGKLTCKFKSTSTTGGLTSVSWSFQPEGADTTVSFFHYSQGQVYLGNYPPFKDRISWAGDLDKKDASINIENMQFIHNGTYICDVKNPPDIVVQPGHIRLYVVEKENLPVFPVWVVVGIVTAVVLGLTLLISMILAVLYRRKNSKRDYTGCSTSESLSPVKQAPRKSPSDTEGLVKSLPSGSHQGPVIYAQLDHSGGHHSDKINKSESVVYADIRKN [MPZL1]
0.534

Note down solubility in G1/S (log2) recorded for MGRIFLDHIGGTRLFSCANCDTILTNRSELISTRFTGATGRAFLFNKVVNLQYSEVQDRVMLTGRHMVRDVSCKNCNSKLGWIYEFATEDSQRYKEGRVILERALVRESEGFEEHVPSDNS [YPEL5]
0.00475

Note down solubility in G1/S (log2) recorded for MASKKVCIVGSGNWGSAIAKIVGGNAAQLAQFDPRVTMWVFEEDIGGKKLTEIINTQHENVKYLPGHKLPPNVVAVPDVVQAAEDADILIFVVPHQFIGKICDQLKGHLKANATGISLIKGVDEGPNGLKLISEVIGERLGIPMSVLMGANIASEVADEKFCETTIGCKDPAQGQLLKELMQTPNFRITVVQEVDTVEICGALKNVVAVGAGFCDGLGFGDNTKAAVIRLGLMEMIAFAKLFCSGPVSSATFLESCGVADLITTCYGGRNRKVAEAFARTGKSIEQLEKELLNGQKLQGPETARELYSILQHKGLVDKFPLFMAVYKVCYEGQPVGEFIHCLQNHPEHM [GPD1]
0.278

Note down solubility in G1/S (log2) recorded for MDQCVTVERELEKVLHKFSGYGQLCERGLEELIDYTGGLKHEILQSHGQDAELSGTLSLVLTQCCKRIKDTVQKLASDHKDIHSSVSRVGKAIDKNFDSDISSVGIDGCWQADSQRLLNEVMVEHFFRQGMLDVAEELCQESGLSVDPSQKEPFVELNRILEALKVRVLRPALEWAVSNREMLIAQNSSLEFKLHRLYFISLLMGGTTNQREALQYAKNFQPFALNHQKDIQVLMGSLVYLRQGIENSPYVHLLDANQWADICDIFTRDACALLGLSVESPLSVSFSAGCVALPALINIKAVIEQRQCTGVWNQKDELPIEVDLGKKCWYHSIFACPILRQQTTDNNPPMKLVCGHIISRDALNKMFNGSKLKCPYCPMEQSPGDAKQIFF [RMND5A]
0.298

Note down solubility in G1/S (log2) recorded for MLGIWTLLPLVLTSVARLSSKSVNAQVTDINSKGLELRKTVTTVETQNLEGLHHDGQFCHKPCPPGERKARDCTVNGDEPDCVPCQEGKEYTDKAHFSSKCRRCRLCDEGHGLEVEINCTRTQNTKCRCKPNFFCNSTVCEHCDPCTKCEHGIIKECTLTSNTKCKEEGSRSNLGWLCLLLLPIPLIVWVKRKEVQKTCRKHRKENQGSHESPTLNPETVAINLSDVDLSKYITTIAGVMTLSQVKGFVRKNGVNEAKIDEIKNDNVQDTAEQKVQLLRNWHQLHGKKEAYDTLIKDLKKANLCTLAEKIQTIILKDITSDSENSNFRNEIQSLV [FAS]
0.525

Note down solubility in G1/S (log2) recorded for MAQRYDDLPHYGGMDGVGIPSTMYGDPHAARSMQPVHHLNHGPPLHSHQYPHTAHTNAMAPSMGSSVNDALKRDKDAIYGHPLFPLLALIFEKCELATCTPREPGVAGGDVCSSESFNEDIAVFAKQIRAEKPLFSSNPELDNLMIQAIQVLRFHLLELEKVHELCDNFCHRYISCLKGKMPIDLVIDDREGGSKSDSEDITRSANLTDQPSWNRDHDDTASTRSGGTPGPSSGGHTSHSGDNSSEQGDGLDNSVASPSTGDDDDPDKDKKRHKKRGIFPKVATNIMRAWLFQHLTHPYPSEEQKKQLAQDTGLTILQVNNWFINARRRIVQPMIDQSNRAVSQGTPYNPDGQPMGGFVMDGQQHMGIRAPGPMSGMGMNMGMEGQWHYM [MEIS1]
0.363

Note down solubility in G1/S (log2) recorded for MAETEERSLDNFFAKRDKKKKKERSNRAASAAGAAGSAGGSSGAAGAAGGGAGAGTRPGDGGTASAGAAGPGAATKAVTKDEDEWKELEQKEVDYSGLRVQAMQISSEKEEDDNEKRQDPGDNWEEGGGGGGGMEKSSGPWNKTAPVQAPPAPVIVTETPEPAMTSGVYRPPGARLTTTRKTPQGPPEIYSDTQFPSLQSTAKHVESRKDKEMEKSFEVVRHKNRGRDEVSKNQALKLQLDNQYAVLENQKSSHSQYN [CDV3]
-0.0527

Note down solubility in G1/S (log2) recorded for MDPSLLRERELFKKRALSTPVVEKRSASSESSSSSSKKKKTKVEHGGSSGSKQNSDHSNGSFNLKALSGSSGYKFGVLAKIVNYMKTRHQRGDTHPLTLDEILDETQHLDIGLKQKQWLMTEALVNNPKIEVIDGKYAFKPKYNVRDKKALLRLLDQHDQRGLGGILLEDIEEALPNSQKAVKALGDQILFVNRPDKKKILFFNDKSCQFSVDEEFQKLWRSVTVDSMDEEKIEEYLKRQGISSMQESGPKKVAPIQRRKKPASQKKRRFKTHNEHLAGVLKDYSDITSSK [GTF2E2]
0.797

Note down solubility in G1/S (log2) recorded for MNPTLILAAFCLGIASATLTFDHSLEAQWTKWKAMHNRLYGMNEEGWRRAVWEKNMKMIELHNQEYREGKHSFTMAMNAFGDMTSEEFRQVMNGFQNRKPRKGKVFQEPLFYEAPRSVDWREKGYVTPVKNQGQCGSCWAFSATGALEGQMFRKTGRLISLSEQNLVDCSGPQGNEGCNGGLMDYAFQYVQDNGGLDSEESYPYEATEESCKYNPKYSVANDTGFVDIPKQEKALMKAVATVGPISVAIDAGHESFLFYKEGIYFEPDCSSEDMDHGVLVVGYGFESTESDNNKYWLVKNSWGEEWGMGGYVKMAKDRRNHCGIASAASYPTV [CTSL]
-0.176

Note down solubility in G1/S (log2) recorded for MAAAGWRDGSGQEKYRLVVVGGGGVGKSALTIQFIQSYFVTDYDPTIEDSYTKQCVIDDRAARLDILDTAGQEEFGAMREQYMRTGEGFLLVFSVTDRGSFEEIYKFQRQILRVKDRDEFPMILIGNKADLDHQRQVTQEEGQQLARQLKVTYMEASAKIRMNVDQAFHELVRVIRKFQEQECPPSPEPTRKEKDKKGCHCVIF [RRAS2]
-0.172

Note down solubility in G1/S (log2) recorded for MAAPCLLRQGRAGALKTMLQEAQVFRGLASTVSLSAESGKSEKGQPQNSKKQSPPKKPAPVPAEPFDNTTYKNLQHHDYSTYTFLDLNLELSKFRMPQPSSGRESPRH [NDUFV3]
0.224
